Origin of the recorded values: patent US20240376185A1

# Target Under Test: tetanus neurotoxin (TeNT), authentic tetanus holotoxin (Clostridium tetani, UniProt P04958 2-1315)
# Sequence (P04958 2-457 limits assumed, chain 1 of 2): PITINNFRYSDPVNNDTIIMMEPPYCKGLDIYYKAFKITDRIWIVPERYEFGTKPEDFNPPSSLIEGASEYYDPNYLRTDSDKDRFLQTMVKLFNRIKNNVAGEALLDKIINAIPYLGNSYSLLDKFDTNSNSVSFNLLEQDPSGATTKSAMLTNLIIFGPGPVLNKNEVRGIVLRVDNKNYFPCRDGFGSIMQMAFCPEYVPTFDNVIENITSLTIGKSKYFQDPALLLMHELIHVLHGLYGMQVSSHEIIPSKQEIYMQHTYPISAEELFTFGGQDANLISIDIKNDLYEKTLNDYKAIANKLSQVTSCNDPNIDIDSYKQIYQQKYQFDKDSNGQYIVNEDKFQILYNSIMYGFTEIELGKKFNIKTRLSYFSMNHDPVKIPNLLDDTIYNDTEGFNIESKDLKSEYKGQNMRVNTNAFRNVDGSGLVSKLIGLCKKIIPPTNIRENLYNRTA
# Sequence (P04958 458-1315 limits assumed, chain 2 of 2): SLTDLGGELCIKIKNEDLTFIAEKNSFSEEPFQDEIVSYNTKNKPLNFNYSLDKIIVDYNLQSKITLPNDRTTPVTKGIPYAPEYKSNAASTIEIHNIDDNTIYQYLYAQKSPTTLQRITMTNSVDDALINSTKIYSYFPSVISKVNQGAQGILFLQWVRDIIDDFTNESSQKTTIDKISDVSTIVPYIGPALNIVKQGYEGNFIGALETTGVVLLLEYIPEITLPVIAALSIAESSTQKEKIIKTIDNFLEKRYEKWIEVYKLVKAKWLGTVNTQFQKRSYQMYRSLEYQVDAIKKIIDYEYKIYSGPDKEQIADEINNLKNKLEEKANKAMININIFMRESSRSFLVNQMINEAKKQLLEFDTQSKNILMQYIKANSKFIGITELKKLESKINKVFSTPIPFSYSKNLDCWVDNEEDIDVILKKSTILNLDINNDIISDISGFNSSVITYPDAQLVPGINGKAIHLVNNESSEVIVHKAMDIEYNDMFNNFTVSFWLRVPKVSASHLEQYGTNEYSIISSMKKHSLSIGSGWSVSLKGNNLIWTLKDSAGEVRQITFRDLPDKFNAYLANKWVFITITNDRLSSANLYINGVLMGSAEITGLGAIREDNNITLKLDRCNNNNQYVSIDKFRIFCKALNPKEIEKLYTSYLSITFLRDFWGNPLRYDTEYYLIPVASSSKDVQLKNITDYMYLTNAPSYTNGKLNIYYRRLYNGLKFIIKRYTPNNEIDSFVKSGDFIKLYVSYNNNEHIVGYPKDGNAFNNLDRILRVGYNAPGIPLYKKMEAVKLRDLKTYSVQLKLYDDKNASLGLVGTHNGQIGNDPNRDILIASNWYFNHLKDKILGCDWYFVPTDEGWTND
# Measurement Description: ELISA: directly coated TeNT, goat anti-llama Ig PO
Recorded Effective SDA Concentration at A450 0.15 for the following binders
Measure Name: Effective SDA Concentration at A450 0.15

>>> experimental_value("SVT15-3FW4M-GS2-SVG13M4-H6 (bispecific antibody) QVQLQESGGGLVQTGGSLRLSCRASGRAFANYHFGWFRQAPGKDREFVASISWKGGSTYYANFALGRFTSSVDRAESSVYLQMSGLTPEDTATYYCAAHDGGDWNYHTGMDYWGQGTQVTVSSGGGGSGGGSEVQLVESGGGLVQPGGSLRLSCEASGFTFDDYGMSWVRQAPGKGLEWVSSLTPNGGSTYYADSVKGRFTISRDNAKNTLYLQMNSLKPEDTALYYCAKNSYYGAMDYWGQGTQVTVSSHHHHHH")
"2 ng/mL"
>>> experimental_value("SVT15L-3FW4M (VHH) VHH: QVQLQESGGGLVQTGGSLRLSCRASGRAFANYHFGWFRQAPGKDREFVASISWKGGSTYYANFALGRFTSSVDRAESSVYLQMSGLTPEDTATYYCAAHDGGDWNYHTGMDYWGQGTQVTVSS")
"6 ng/mL"
>>> experimental_value("SVG06L (VHH) VHH: QVQLQESGGALVQPGGSLRLSCAASGFPFSAYDMTWVRQAPGQGLEWVSTIHKSGGITTYADSVKGRFTISRDNAKNTLYLQMNNLESEDTAVYYCAKALRAHNSDYVGRNALGSWGEGTLVTVSS")
"> 1000 ng/mL"
